measurement.protocol: High-throughput drug toxicity screening in the BPDCN cell line Cal-1 (AID 1224825);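 also: cells exposed to compounds for 48 h; 100% = DMSO and 0% = bortezomib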
run.conditions: Cal-1 BPDCN cell viability, qHTS; at 45.8 µM (top of the series) unless noted
metric: viability (% of control)

Field viability (% of control) (entry CCCCCCCCCCCCc1ccc(S(=O)(=O)Nc2nncs2)cc1 ) reads 105%

get_value(item= COC(=O)[C@H](CCCN=C(N)N)NS(=O)(=O)c1ccc(C)cc1 , readout=viability (% of control)) returns 104%

# viability (% of control) (compound: CCc1c(O)cc(O)c(C(=O)c2ccc(OCCN3CCOCC3)c(OC)c2)c1CC(=O)N(CCOC)CCOC ) is 16.5%

Record summary for CCCc1nc(C(C)(C)O)c(C(=O)O)n1Cc1ccc(-c2ccccc2-c2nn[nH]n2)cc1 : reported viability (% of control) = 103%

Data point: CCN1CCN(C(=O)N[C@H](C(=O)N[C@@H]2C(=O)N3C(C(=O)O)=C(CSc4nnnn4C)CS[C@@H]23)c2ccc(O)cc2)C(=O)C1=O ; viability (% of control) = 113% [at 15.3 µM]

Documented viability (% of control) of N#Cc1c(C2CCNCC2)cc(-c2c(O)cccc2OCC2CC2)nc1N : 5.17%

Looking up CC(C)(O)CC[C@@H](O)[C@](C)(O)[C@H]1CC[C@@]2(O)C3=CC(=O)[C@@H]4C[C@@H](O)[C@@H](O)C[C@]4(C)[C@@H]3CC[C@]12C , I found its viability (% of control) recorded as 104%

Query CC(=O)OCC(=O)[C@@]1(O)CC[C@H]2[C@@H]3CCC4=CC(=O)CC[C@]4(C)[C@@H]3C(=O)C[C@@]21C yields viability (% of control) of 111%

viability (% of control) recorded for this compound, COc1cccc2c1C(=O)c1c(O)c3c(c(O)c1C2=O)C[C@@](O)(C(=O)CO)C[C@@H]3O[C@H]1C[C@H](N)[C@@H](O)[C@H](C)O1 , is 4.51%

// field: viability (% of control); key: C=CC(=O)Nc1cccc(Nc2nc(NC3CCC(N(C)C)CC3)nc3c2ncn3C(C)C)c1 (configuration not stated) ; value = 2.19%

Data point: Cn1cnc(=N)c2[nH]cnc21 ; viability (% of control) = 8.73%

The reported value for C#Cc1cccc(Nc2ncnc3cc(OCCOC)c(OCCO)cc23)c1 in terms of viability (% of control) is 12.5%

The compound identified as OCC(O)C(O)C(O)CO (configuration not stated) registered its viability (% of control) at 66.8%

viability (% of control) reported for this compound N#CNC(=NCCCCCCOc1ccc(Cl)cc1)Nc1ccncc1 : 2.53%

Briefly, viability (% of control) measured for C[C@](Cc1c[nH]c2ccccc12)(NC(=O)OC1C2CC3CC(C2)CC1C3)C(=O)NC[C@H](NC(=O)CCC(=O)O)c1ccccc1 (some centres not stated) : 4.7%

Value of viability (% of control) reported for the compound CC(C)(C)[C@H](NC(=O)c1ccc(N)c(Cl)c1)C(=O)N1CCC[C@@H]1C(=O)N[C@H](C#N)CC(=O)O is 25% [at 3.51 µM]

Documented viability (% of control) of Cc1coc2c1C(=O)C(=O)c1c-2ccc2c(C)cccc12 : 93.8%
